Provenance of the data: paper PMC5384886

# IC50 annotations
# System: PfDd2 (chloroquine-resistant) strain
# EXPERIMENT: In vitro P. falciparum whole cell assay
# Assay type: cell-based
# CONDITION_SET: Plasmodium falciparum, 72 h, read-out: PfDd2 IC50
READOUT_TYPE: IC50 (nM)

>  <COMPOUND>
CCN(CC)CCCC(C)Nc1ccnc2cc(Cl)ccc12 (stereo not shown) [Chloroquine, reference compound]

>  <READOUT_TYPE>
IC50

>  <DATA_VALUE>
231

$$$$
>  <COMPOUND>
CCCCCCCCNCC(O)Cn1c2ccc(Cl)cc2c2cc(Cl)ccc21 (stereo not shown)

>  <READOUT_TYPE>
IC50

>  <DATA_VALUE>
54

$$$$
>  <COMPOUND>
CCCCNC[C@H](O)Cn1c2ccc(Cl)cc2c2cc(Cl)ccc21 [(S)-7]

>  <READOUT_TYPE>
IC50

>  <DATA_VALUE>
112

$$$$
>  <COMPOUND>
CCCCCCCNCC(O)Cn1c2ccc(Cl)cc2c2cc(Cl)ccc21 (stereo not shown)

>  <READOUT_TYPE>
IC50

>  <DATA_VALUE>
54

$$$$
>  <COMPOUND>
CCCCNC[C@@H](O)Cn1c2ccc(Cl)cc2c2cc(Cl)ccc21 [(R)-7]

>  <READOUT_TYPE>
IC50

>  <DATA_VALUE>
172

$$$$
>  <COMPOUND>
C[C@H]1[C@@H](O)O[C@@H]2O[C@@]3(C)CC[C@H]4[C@H](C)CC[C@@H]1[C@@]24OO3 [Dihydroartemisinin, reference compound]

>  <READOUT_TYPE>
IC50

>  <DATA_VALUE>
5

$$$$
>  <COMPOUND>
CCCCCCNCC(O)Cn1c2ccc(Cl)cc2c2cc(Cl)ccc21 (stereo not shown)

>  <READOUT_TYPE>
IC50

>  <DATA_VALUE>
47

$$$$
